src = patent US5837499A

- Measured target: T1, C5a receptor (Homo sapiens, UniProt P21730)
- T1 construct: Neutrophils were purified from human peripheral blood; endogenous in cells; host or cells: neutrophils from human peripheral blood
- T1 sequence (P21730 1-350): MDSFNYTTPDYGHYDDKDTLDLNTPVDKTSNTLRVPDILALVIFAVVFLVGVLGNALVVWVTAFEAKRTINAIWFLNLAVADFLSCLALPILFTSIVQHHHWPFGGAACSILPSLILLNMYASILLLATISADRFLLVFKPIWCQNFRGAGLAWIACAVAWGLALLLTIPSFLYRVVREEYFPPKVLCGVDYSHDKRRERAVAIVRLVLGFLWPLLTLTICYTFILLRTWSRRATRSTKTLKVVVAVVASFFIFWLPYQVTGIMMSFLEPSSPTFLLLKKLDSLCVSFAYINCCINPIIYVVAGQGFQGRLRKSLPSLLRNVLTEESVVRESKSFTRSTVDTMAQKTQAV
- Test protocol: Receptor binding assay: displacement of [125I]Bolton-Hunter-labelled C5a from PMNL membranes
- Reported conditions: Table 4, [125I]BH-C5a 4.0 pM, 120 min at 4° C., Cheng-Prusoff
Property label: Ki (nM)

The examples below pair each entry with its known result.
Analogue 22: dimeric form of analogue No. 8, disulfide linked through the C-terminal cysteines (protein, UniProt P01031 678-748, looked up, fragment T1M C27S Q71C, C5a anaphylatoxin disulfide-linked dimer, dimeric form of analogue No. 8, disulfide linked through the C-terminal cysteines) MLQKKIEEIAAKYKHSVVKKCCYDGASVNNDETCEQRAARISLGPRCIKAFTECCVVASQLRANISHKDMC
0.04
C5a(1-71,T1M,C27S,Q71C) (protein, UniProt P01031 678-748, looked up, fragment T1M C27S Q71C, C5a anaphylatoxin) MLQKKIEEIAAKYKHSVVKKCCYDGASVNNDETCEQRAARISLGPRCIKAFTECCVVASQLRANISHKDMC
0.2
C5a(1-71,T1M,C27S,Q71D) (protein, UniProt P01031 678-748, looked up, fragment T1M C27S Q71D, C5a anaphylatoxin, comparison agonist) MLQKKIEEIAAKYKHSVVKKCCYDGASVNNDETCEQRAARISLGPRCIKAFTECCVVASQLRANISHKDMD
8.5
C5a(1-71,T1M,C27S,Q71S) (protein, UniProt P01031 678-748, looked up, fragment T1M C27S Q71S, C5a anaphylatoxin, comparison agonist) MLQKKIEEIAAKYKHSVVKKCCYDGASVNNDETCEQRAARISLGPRCIKAFTECCVVASQLRANISHKDMS
7.5
C5a(1-71,T1M,C27S,Q71R) (protein, UniProt P01031 678-748, looked up, fragment T1M C27S Q71R, C5a anaphylatoxin, comparison agonist) MLQKKIEEIAAKYKHSVVKKCCYDGASVNNDETCEQRAARISLGPRCIKAFTECCVVASQLRANISHKDMR
0.35

1. C5a(1-71,T1M,C27S,H67F,Q71C) (protein, UniProt P01031 678-748, looked up, fragment T1M C27S H67F Q71C, C5a anaphylatoxin) MLQKKIEEIAAKYKHSVVKKCCYDGASVNNDETCEQRAARISLGPRCIKAFTECCVVASQLRANISFKDMC
2. C5a(1-72,T1M,C27S,L72C) (protein, UniProt P01031 678-749, looked up, fragment T1M C27S L72C, C5a anaphylatoxin) MLQKKIEEIAAKYKHSVVKKCCYDGASVNNDETCEQRAARISLGPRCIKAFTECCVVASQLRANISHKDMQC
Ask | I need your help: which of the pair 1 , 2 has higher Ki? Mark your selection by writing its label.
Reply | 2
(2: 0.9 nM, 1: 0.1 nM)
